assay: Phase I metabolism in human liver microsomes, metabolite quantitation by UPLC-MS/MS MRM; format: in vitro ADME; conditions: MRM mode; parent 50 μM, HLM 1.0 mg/mL, NADPH 1 mM, 90 min
Below, each entry is listed with its recorded Peak Area HLM.
parameter.measured: Peak Area HLM

>>> observed("O=c1ccc2ccc3c(c2o1)C(O)C(O)O3 (centres unmarked) [M′5]")
1627
>>> observed("O=C(O)/C=C\\c1ccc2occc2c1O [M′3]")
312
>>> observed("O=c1ccc2c(O)cc3occc3c2o1 [M′2]")
1349
>>> observed("O=c1ccc2c(O)c3ccoc3cc2o1 [M1]")
557
>>> observed("O=c1ccc2c(O)c3ccoc3c(O)c2o1 [M3]")
529
>>> observed("O=c1ccc2cc(O)c3occc3c2o1 [M′1]")
1288

* * *

assay: Phase I metabolism in mice liver microsomes, metabolite quantitation by UPLC-MS/MS MRM; assay type: in vitro ADME; conditions: MRM mode; parent 50 μM, MLM 1.0 mg/mL, NADPH 1 mM, 90 min
Reported Peak Area MLM values follow for various compounds
parameter.measured: Peak Area MLM

>>> observed("O=c1ccc2ccc3c(c2o1)C(O)C(O)O3 (centres unmarked) [M′5]")
7725
>>> observed("O=C(O)/C=C\\c1ccc2occc2c1O [M′3]")
418
>>> observed("O=c1ccc2c(O)c3ccoc3cc2o1 [M1]")
1019
>>> observed("O=c1ccc2c(O)cc3occc3c2o1 [M′2]")
4707
>>> observed("O=c1ccc2c(O)c3ccoc3c(O)c2o1 [M3]")
164

* * *

molecular target: CYP3A4 (Homo sapiens); assay: IC50 shift assay (pre-incubation with/without NADPH); assay type: in vitro ADME; settings: HLM, 30 min pre-incubation with NADPH; read-out: IC50 (+) NADPH
pIC50: −log10 of the molar value.
parameter.measured: pIC50

>>> observed("O=c1ccc2cc3ccoc3cc2o1 [Psoralen]")
4.71

* * *

biological target: CYP3A4 (Homo sapiens); experiment: IC50 shift assay (pre-incubation with/without NADPH); format: in vitro ADME; conditions: IC50 (−) NADPH, HLM, 30 min pre-incubation without NADPH
parameter.measured: IC50

>>> observed("O=c1ccc2ccc3occc3c2o1")
"96.8 µM"

* * *

target: CYP3A4 (Homo sapiens, UniProt P08684); experiment: IC50 shift assay (pre-incubation with/without NADPH); format: in vitro ADME; settings: IC50 (+) NADPH, HLM, 30 min pre-incubation with NADPH
Sequence (P08684 whole entry): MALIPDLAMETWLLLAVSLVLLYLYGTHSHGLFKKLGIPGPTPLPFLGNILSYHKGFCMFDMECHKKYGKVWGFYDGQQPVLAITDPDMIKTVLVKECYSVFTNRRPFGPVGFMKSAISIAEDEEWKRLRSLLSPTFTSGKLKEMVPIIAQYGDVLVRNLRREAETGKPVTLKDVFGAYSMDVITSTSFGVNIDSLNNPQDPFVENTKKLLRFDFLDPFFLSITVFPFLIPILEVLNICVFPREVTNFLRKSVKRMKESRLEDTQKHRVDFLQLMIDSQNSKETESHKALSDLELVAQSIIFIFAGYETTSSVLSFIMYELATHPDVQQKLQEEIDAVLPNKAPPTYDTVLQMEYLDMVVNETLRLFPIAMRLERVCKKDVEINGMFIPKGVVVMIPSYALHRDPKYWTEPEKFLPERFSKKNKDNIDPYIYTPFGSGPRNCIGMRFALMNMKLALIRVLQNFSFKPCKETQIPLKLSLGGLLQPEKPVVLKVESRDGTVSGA
parameter.measured: IC50 (µM)

>>> observed("O=c1ccc2ccc3occc3c2o1 [Isopsoralen]")
9.59

* * *

biological target: CYP3A4 (Homo sapiens); assay: IC50 shift assay (pre-incubation with/without NADPH); type: in vitro ADME; conditions: HLM, 30 min pre-incubation without NADPH; read-out: IC50 (−) NADPH
pIC50: −log10 of the molar value.
parameter.measured: pIC50

>>> observed("O=c1ccc2cc3ccoc3cc2o1 [Psoralen]")
"< 3.70"

* * *

assay: Phase I metabolism in mice liver microsomes, metabolite quantitation by UPLC-MS/MS MRM; assay type: in vitro ADME; conditions: MRM mode; parent 50 μM, MLM 1.0 mg/mL, NADPH 1 mM, 90 min
Some molecules, each annotated with its measured Peak Area MLM.
parameter.measured: Peak Area MLM

>>> observed("O=c1ccc2cc(O)c3occc3c2o1 [M′1]")
"14,513"
>>> observed("O=c1ccc2cc3c(cc2o1)OC(O)C3O (stereo not drawn) [M5]")
"102,180"
>>> observed("O=C(O)Cc1cc2ccc(=O)oc2cc1O [M4, 6-carboxymethyl-7-hydroxyl-coumarin]")
"98,864"
